# Tested on: Plasmodium berghei
# procedure-text: Luciferase/luciferin-expressing antifolate-resistant parasites were used to infect a culture of HepG2 cells that were pre-incubated with compounds. Infected hepatocytes emit light due to the luciferase reaction. Assay results are presented as the percent inhibition of light emission compared to control. […]
# Type: functional
# run-parameters: sporozoite, HEPG2TOX_HILL_SLOPE 5.97, HEPG2TOX_R_SQUARED 0.339, PBLUC_HILL_SLOPE 3.63, PBLUC_R_SQUARED 0.528, read-out: LUCIFERASE INFECTION ASSAY - IC50
property-measured: IC50 (nM)
Quick reminder: number only, in nM, skip the unit.

Q) Any idea what its IC50 is? The compound is Cc1ccc(C)c(-c2nn(C(C)C(=O)Nc3cc(C)on3)c(=O)c3ccccc23)c1 (stereo unspecified)
A) 2090

----------
# System: Plasmodium berghei
# procedure-text: Luciferase/luciferin-expressing antifolate-resistant parasites were used to infect a culture of HepG2 cells that were pre-incubated with compounds. Infected hepatocytes emit light due to the luciferase reaction. Assay results are presented as the percent inhibition of light emission compared to control. […]
# Format: functional
# run-parameters: sporozoite, read-out: LUCIFERASE INFECTION ASSAY - IC90
property-measured: IC90

A selection of reference data follows.
{"mol": "CN(C)CCCNc1cc(N(C)C)c(N)c2c1C(=O)c1ccccc1C2=O", "assay-system": "Plasmodium berghei", "IC90": "> 9.01 µM"}
{"mol": "CN1C/C(=C\\c2ccc(Cl)cc2)C(=O)/C(=C/c2ccc(Cl)cc2)C1", "assay-system": "Plasmodium berghei", "IC90": "> 9.21 µM"}
{"mol": "CC(=O)c1cccc(-c2cnc3ccc(-c4cccc(Oc5ccccc5)c4)nn23)c1", "assay-system": "Plasmodium berghei", "IC90": "> 10 µM"}
{"mol": "CC(C)[C@H](NC(=O)c1ccccc1Cl)C(=O)Nc1nc(-c2ccccn2)cs1", "assay-system": "Plasmodium berghei", "IC90": "6.36 µM"}

Continue with the compound presented below.
Q) Recorded IC90 for `O=C(CN(Cc1ccco1)C(=O)c1ccc(-c2cccc(C(F)(F)F)c2)o1)Nc1ccccc1Br` , please?
A) > 10 µM

----------
# Tested on: Plasmodium berghei
# procedure-text: Luciferase/luciferin-expressing antifolate-resistant parasites were used to infect a culture of HepG2 cells that were pre-incubated with compounds. Infected hepatocytes emit light due to the luciferase reaction. Assay results are presented as the percent inhibition of light emission compared to control. […]
# Format: functional
# run-parameters: sporozoite, PBLUC_HILL_SLOPE 3.03, PBLUC_R_SQUARED 0.707, read-out: LUCIFERASE INFECTION ASSAY - IC50
property-measured: IC50

Q) What does the record list as IC50 for `O=[N+]([O-])c1ccc(-c2noc(CCOc3ccc(F)cc3)n2)o1` ?
A) 4.78 µM

----------
# Tested on: Plasmodium berghei
# procedure-text: Luciferase/luciferin-expressing antifolate-resistant parasites were used to infect a culture of HepG2 cells that were pre-incubated with compounds. Infected hepatocytes emit light due to the luciferase reaction. Assay results are presented as the percent inhibition of light emission compared to control. […]
# Format: functional
# run-parameters: sporozoite, HEPG2TOX_HILL_SLOPE 2.06, HEPG2TOX_R_SQUARED 0.967, PBLUC_HILL_SLOPE 11.3, PBLUC_R_SQUARED 0.609, read-out: LUCIFERASE INFECTION ASSAY - IC50
property-measured: IC50 (µM)
Supply the numeric figure in µM, leaving out any unit text.

Q) Sample `O=C(Nc1ccc2nc(Cc3ccccc3)nn2c1)c1cccc(Cl)c1` — what was its IC50?
A) 1.22

----------
Reported values of IC90 for individual entries
# System: Plasmodium berghei
# procedure-text: Luciferase/luciferin-expressing antifolate-resistant parasites were used to infect a culture of HepG2 cells that were pre-incubated with compounds. Infected hepatocytes emit light due to the luciferase reaction. Assay results are presented as the percent inhibition of light emission compared to control. […]
# Assay type: functional
# run-parameters: sporozoite, read-out: LUCIFERASE INFECTION ASSAY - IC90

The following compounds have reported results that may help.
{"compound": "Cn1c(N)c(C(=O)COC(=O)c2ccccc2-c2nc3ccccc3s2)c(=O)n(C)c1=O", "experimental-value": "> 10 µM"}
{"compound": "O=S(=O)(Nc1nn(Cc2ccc(C(F)(F)F)cc2)c2ccccc12)c1cccc2nsnc12", "experimental-value": "> 6.74 µM"}
{"compound": "Cc1c(Cl)cccc1NC(=O)CCc1nc(C(C)C)no1", "experimental-value": "> 10 µM"}
{"compound": "CCC(C)c1ccc(NC(=O)/C(C#N)=C/c2cc3c(cc2[N+](=O)[O-])OCO3)cc1 (configuration not stated)", "experimental-value": "> 10 µM"}
{"compound": "O=S(=O)(Oc1ccc(Cl)cc1)c1cc(S(=O)(=O)Oc2ccc(Cl)cc2)c(Cl)s1", "experimental-value": "> 6.6 µM"}
{"compound": "O=C1NC2(CCOc3ccccc32)C(=O)N1Cc1cc2ccccc2nc1Cl (configuration not stated)", "experimental-value": "1.37 µM"}
{"compound": "CC12CC3CC(C1)CC(c1ccc(O)cc1)(C3)C2", "experimental-value": "> 10 µM"}
{"compound": "N#CC1C(=N)Oc2c3c(c4ccccc4c2C1c1ccc(Cl)cc1)C(c1ccc(Cl)cc1)C(C#N)C(=N)O3 (configuration not stated)", "experimental-value": "> 6.14 µM"}

Q) Please give the measured IC90 for this compound: `COc1ccc(S(=O)(=O)NN(C)c2nc(C(F)(F)F)nc3ccccc23)cc1`
A) 7.15 µM

Q) What do we get for `C/C(=N\c1cc(C(F)(F)F)ccc1Cl)Nc1ccc(C)cc1` ?
A) > 10 µM

Q) Param item: `C/C(=N\N=C(N)N)c1ccc(Cl)c(Cl)c1`
A) > 10 µM

Q) Same thing, different compound: `Cc1ccc2c(Cl)cc(Cl)c(OCN3C(=O)c4ccccc4C3=O)c2n1`
A) 5.83 µM

Q) Same read-out for Oc1cccnc1NC(c1ccccc1F)c1ccc2cccnc2c1O (configuration not stated) ?
A) 9.5 µM

Q) Also need `CCCc1c(Cc2c(F)cccc2Cl)c(=O)oc2cc(OC(=O)c3ccccc3Cl)ccc12` , thanks.
A) > 6.8 µM

Q) Note, next up: Cc1ccc(C)c(NC(=O)C(OC(=O)c2c3c(nc4ccccc24)CCN(C)C3)c2ccccc2)c1 (configuration not stated)
A) > 10 µM

Q) `O=C1N(CN2CCCCC2)c2ccc(Br)cc2C12OCCO2` ?
A) > 8.99 µM

Q) Then what about the compound `CCOc1ccc(C=C(c2nc3ccccc3s2)c2nc3ccccc3s2)c(O)c1` ?
A) > 10 µM

Q) Lookup `O=C1C=CC(=O)N1c1cc(Cl)ccc1Cl`
A) > 13.6 µM

Q) Lookup `C=Cc1c(S(C)(=O)=O)sc(C(N)=O)c1C`
A) > 13.5 µM

Q) For `Cc1ccc(C(=N)NOC(=O)c2cccc(Cn3cc(C(F)(F)F)ccc3=O)c2)cc1` then?
A) > 7.69 µM

Q) Also `CC(=O)Nc1cccc(-c2cn3c(-c4ccc(C#N)cc4)cnc3cn2)c1` , if possible.
A) > 9.34 µM

Q) What about NC(Cc1ccc(F)cc1)c1csc(Nc2nncc3ccccc23)n1 (configuration not stated) ?
A) > 9.03 µM

Q) Also need `COc1ccccc1NS(=O)(=O)c1ccc2c(c1)N=Cc1c(F)cccc1O2` , thanks.
A) > 10 µM

Q) Note, next up: `COc1ccc(-c2ccc3c(c2)COC2(CCN(C(=O)c4ccc(F)cc4F)CC2)O3)cc1OC`
A) > 6.85 µM

----------
# Tested on: Plasmodium berghei
# procedure-text: Luciferase/luciferin-expressing antifolate-resistant parasites were used to infect a culture of HepG2 cells that were pre-incubated with compounds. Infected hepatocytes emit light due to the luciferase reaction. Assay results are presented as the percent inhibition of light emission compared to control. […]
# Type: functional
# run-parameters: sporozoite, PBLUC_HILL_SLOPE 1.11, PBLUC_R_SQUARED 0.206, read-out: LUCIFERASE INFECTION ASSAY - IC50
property-measured: IC50

Q) Report IC50 for `COc1ccc(-c2nn(-c3ccccc3)cc2/C=C/C(=O)NCCc2cn3ccccc3n2)cc1OC` please.
A) > 10 µM

----------
# maps each entry to its pIC50
# Test system: Plasmodium berghei
# procedure-text: Luciferase/luciferin-expressing antifolate-resistant parasites were used to infect a culture of HepG2 cells that were pre-incubated with compounds. Infected hepatocytes emit light due to the luciferase reaction. Assay results are presented as the percent inhibition of light emission compared to control. […]
# Assay type: functional
# run-parameters: sporozoite, read-out: LUCIFERASE INFECTION ASSAY - IC50
pIC50: −log10 of the molar value.

{"compound": "O=C(Nc1ccc(-c2nc3ccccc3[nH]2)cc1)C1CCCO1 (stereo not given)", "pIC50": "< 5.00"}

Q) I'd like to know its pIC50. The compound in question is `Cc1nc(C(C)(C)C)nc2sc(C(=O)NNC(=O)c3ccccn3)c(C)c12`
A) 5.08

Q) Similarly, `COC(=O)c1ccc(NC(=O)Cc2ccc(NC(=O)OC(C)(C)C)cc2)c(C)c1` ?
A) < 5.00

Q) Also CC(C(=O)Nc1cccc(C#Cc2cccs2)c1)n1cnc2ccccc21 (stereo not given) ?
A) < 5.00

Q) What do you have for `CCOC(=O)c1ccc2c(c1)nc(-c1ccc(Sc3ccc(C)cc3)c([N+](=O)[O-])c1)n2CC` ?
A) < 5.00

Q) Another compound: `O=C(CN1CCN(C(=O)c2ccccc2COc2ccccc2)CC1)Nc1ccccc1Cl`
A) < 5.00

Q) What do you have for `CC1(C)CC(=O)c2c(SCCOC(=O)Nc3ccccc3)sc(C#N)c2C1` ?
A) < 5.08

Q) For `CN(C)c1cccc(-c2cnc3sc(NCCCO)nn23)c1` then?
A) < 4.98

Q) And `Cc1ccc2c(C)cc(Sc3nc4ccccc4s3)nc2c1` ?
A) < 5.00

Q) // repeat for `CCN(Cc1cccc(F)c1)C(=O)Nc1ccccc1-n1nc(C)cc1C` and report
A) < 5.00
